# maps each entry to its FI (650)/FI (620)
- tgt: BTK-1h (Homo sapiens, UniProt Q06187)
- Construct: The BTK kinase domain was diluted to 2 μM in the buffer, and 2 μM 1h was added; made in house
- Sequence (Q06187 402-655): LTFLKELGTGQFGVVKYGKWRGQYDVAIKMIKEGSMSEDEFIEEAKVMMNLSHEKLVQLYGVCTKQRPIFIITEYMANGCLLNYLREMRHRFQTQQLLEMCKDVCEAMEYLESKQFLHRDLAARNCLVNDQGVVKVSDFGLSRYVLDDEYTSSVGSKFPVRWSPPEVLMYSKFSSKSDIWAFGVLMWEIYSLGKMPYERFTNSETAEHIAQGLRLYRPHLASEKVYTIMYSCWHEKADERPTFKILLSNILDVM
- assay.remarks: High-throughput screening with 1h-labeled BTK
- Format: binding
- condition.details: Dataset S2A; 200 μM compound, BTK-1h, 32 °C, 10 min
assay.metric: FI (650)/FI (620)

INSERT INTO assay_data (molecule, value_reported) VALUES
  ('Oc1ccc(Nc2nc(-c3ccc(Cl)cc3)cs2)cc1', 1.023),
  ('O=C(NC(NC(=S)Nc1ccc(F)c([N+](=O)[O-])c1)C(Cl)(Cl)Cl)C(c1ccccc1)c1ccccc1 (stereo not drawn)', 0.9898),
  ('CC(=O)O/N=C1/C(c2c(O)[nH]c3cc(Br)ccc23)=Nc2ccccc21', 1.013),
  ('Cc1noc(C)c1-c1ccc(-c2cc(C(N)=O)c(NC(N)=O)s2)c(O[C@H]2CCNC2)c1', 2.057),
  ('Cc1ccc(C(=O)Nc2ccc(CN3CCN(C)CC3)c(C(F)(F)F)c2)cc1C#Cc1cnc2cccnn12', 1.022),
  ('O=C([O-])CCN1C(=O)/C(=C/c2ccc(-c3ccc([N+](=O)[O-])cc3)o2)SC1=S.[K+]', 0.9958),
  ('CN1CCN(Cc2ccc(NC(=O)Nc3ccc(Oc4cc(NC(=O)C5CC5)ncn4)cc3)cc2C(F)(F)F)CC1', 1.014),
  ('Cc1cc(O)c(-c2ccc([C@@H](C)CN)cc2)c2c1[nH]c(=O)c1sccc12', 1.102),
  ('CCOC(=O)c1ccc(NC(=O)O[C@H]2[C@H](OC(=O)Nc3ccc4c(c3)OCO4)[C@@H](OC(=O)Nc3ccc4c(c3)OCO4)[C@@H](OC)O[C@@H]2CO)cc1', 0.9726),
  ('O=c1cc(-c2ccccc2)oc2cc(O)c(O)c(O)c12', 2.028),
  ('Cc1c[nH]c(/C=C2\C(=O)Nc3ccccc32)c1CCC(=O)O', 1.505),
  ('CN1CCN(Cc2ccc(-c3cnc4[nH]cc(-c5ccc6[nH]ccc6c5)c4c3)cc2)CC1', 1.4774),
  ('COc1cc(/C=C/C(=O)CC(=O)/C=C/c2ccc(O)cc2)ccc1O', 2.134),
  ('COc1cc(N2CCC(N(C)C)CC2)ccc1Nc1ncc(Cl)c(Nc2ccccc2P(C)(C)=O)n1', 1.083),
  ('O=C(O)c1ccc(C=C2SC(=S)N(c3cccc(C(F)(F)F)c3)C2=O)cc1', 1.083),
  ('Cc1ccc(NS(=O)(=O)c2ccc3c(c2)C2C=CCC2C(c2ccc(C(=O)O)cc2)N3)cc1C (stereo not drawn)', 3.789),
  ('COc1cccc2c1C(=O)c1c(O)c3c(c(O)c1C2=O)C[C@@](O)(C(=O)CO)C[C@@H]3O[C@H]1C[C@H](N)[C@H](O[C@@H]2CCCCO2)[C@H](C)O1', 0.7711),
  ('COc1cc(C[C@H](C)[C@H](C)Cc2ccc3c(c2)OCO3)ccc1O', 0.9224),
  ('COc1cc(N2CCC(N3CCN(C)CC3)CC2)ccc1Nc1ncnc(Nc2ccccc2S(=O)(=O)C(C)C)n1', 1.877),
  ('COCCCc1sc(-c2ccccc2)nc1C(=O)Nc1ccccc1-c1nc2cc(CN3CCCC3)cnc2s1.Cl', 0.6133),
  ('CC1=C(C(=O)OC(C)C)C(c2cccc([N+](=O)[O-])c2)C(C(=O)OC2CN(C(c3ccccc3)c3ccccc3)C2)=C(N)N1 (stereo not drawn)', 1.1262);
